Selectivity Ratio κ1δ overview
Target: UniProt P33533
Sequence (P33533 whole entry): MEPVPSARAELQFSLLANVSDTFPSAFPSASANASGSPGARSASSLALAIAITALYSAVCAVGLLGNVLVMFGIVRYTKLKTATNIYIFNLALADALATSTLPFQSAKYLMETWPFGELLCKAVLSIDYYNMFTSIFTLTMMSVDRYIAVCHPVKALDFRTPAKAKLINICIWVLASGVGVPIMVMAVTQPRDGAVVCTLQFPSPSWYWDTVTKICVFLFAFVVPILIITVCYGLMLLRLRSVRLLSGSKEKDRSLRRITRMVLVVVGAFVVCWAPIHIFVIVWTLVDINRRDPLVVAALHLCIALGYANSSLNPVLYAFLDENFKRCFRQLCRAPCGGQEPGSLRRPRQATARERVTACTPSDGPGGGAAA
Assay: Radioligand binding, delta sites, displacement of [3H]DADLE in rat brain membranes
Parameters: Rat membranes were prepared each day using a partially thawed frozen rat brain; from tissue; host or cells: rat brain membranes
Conditions: pyridomorphinans; ratio of Ki values

Worked set:
>>> result("O=[N+]([O-])c1cnc2c(c1)CC1(O)C3Cc4ccc(O)c5c4C1(CCN3CC1CC1)C2O5 (stereo not shown) [Compound 7e]")
17
>>> result("Nc1cnc2c(c1)C[C@@]1(O)[C@H]3Cc4ccc(O)c5c4[C@@]1(CCN3CC1CC1)[C@H]2O5 [Compound 7f]")
1.5
>>> result("Oc1ccc2c3c1OC1c4ncc(Br)cc4CC4(O)C(C2)N(CC2CC2)CCC314 (stereo not shown) [Compound 7b]")
46

# ---- query molecule ----
Need Selectivity Ratio κ1δ, item N#Cc1cnc2c(c1)CC1(O)C3Cc4ccc(O)c5c4C1(CCN3CC1CC1)C2O5 (stereo not shown) [Compound 7c]
7.5
